Could you please report measured apparent Kd (screen) for the items listed next?
# tested.on: T1, TNFR1 (Homo sapiens, UniProt P19438)
# T1 chain: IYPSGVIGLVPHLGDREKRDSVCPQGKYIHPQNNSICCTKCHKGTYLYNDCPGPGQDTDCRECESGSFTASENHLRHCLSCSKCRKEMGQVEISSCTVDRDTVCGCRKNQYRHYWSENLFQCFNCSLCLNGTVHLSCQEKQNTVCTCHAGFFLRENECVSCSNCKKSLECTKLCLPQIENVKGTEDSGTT
# experiment.summary: yeast display SC50
Answers are plain numbers, in pM.

Recorded results for 3 binders are shown here.
I49K (designed binder) MTLQELLREEALRRAEAEAFRYALELLAEKFPEQKEYLLDLAEEIESQKRSLSGVDVEDVRKFLDKEWAWVKELLAEHPAELAEVEAARAARLAELRAEVEAKVAA
7780
E84C (designed binder) MTLQELLREEALRRAEAEAFRYALELLAEKFPEQKEYLLDLAEEIESQIRSLSGVDVEDVRKFLDKEWAWVKELLAEHPAELACVEAARAARLAELRAEVEAKVAA
539
V85K (designed binder) MTLQELLREEALRRAEAEAFRYALELLAEKFPEQKEYLLDLAEEIESQIRSLSGVDVEDVRKFLDKEWAWVKELLAEHPAELAEKEAARAARLAELRAEVEAKVAA
653

Requested read-out: apparent Kd (screen). Entry: L12A (designed binder) MTLQELLREEAARRAEAEAFRYALELLAEKFPEQKEYLLDLAEEIESQIRSLSGVDVEDVRKFLDKEWAWVKELLAEHPAELAEVEAARAARLAELRAEVEAKVAA
790

Entry source: paper PMC12416549
